- ASSAY PROCEDURE: Bioassay: distribution of I-123-labeled compounds in organs of rats after tail vein injection (percent dose/gram, brain/blood ratio)
- Type: in vivo, Female Sprague-Dawley rats
- APPLIED CONDITIONS: rat, iv, brain, 5 minutes post-injection, 0.05 to 1.0 mCi, two rats, read-out: Percent Dose/Gram Brain 5 min.
PROPERTY LABEL: tissue uptake at 5 min (%ID/g)
Your answer should be a plain number; it is taken to be in %ID/g.

Tell me tissue uptake at 5 min reported for CCN(Cc1ccccc1I)Cc1ccccc1[123I]
0.36

Output tissue uptake at 5 min of Nc1ccccc1[123I]
0.47

Return reported tissue uptake at 5 min. Input compound: [123I]c1ccccc1CNc1ccccc1
1.02

For the compound [123I]c1ccccc1NCc1ccccc1 , give its reported tissue uptake at 5 min.
0.67

Read the entry CC(C)Nc1ccc([123I])cc1 and write its reported tissue uptake at 5 min.
1.23
